The measurements presented in this section are drawn from ChEMBL document CHEMBL1135396.

# target_of_assay: Sodium/potassium-transporting ATPase
# assay_details: 30% displacement of the specific [3H]ouabain binding from the dog kidney Na+/K+ ATPase
# Format: protein-complex assay, Canis lupus familiaris
pIC50: −log10 of the molar value.
Recorded pIC50 for the following compounds
reported_metric: pIC50

1. CN(C)CCO/N=C/[C@H]1CC[C@]2(O)C[C@H](c3ccccc3)CC[C@]12C    < 4.00
2. C[C@]12CC[C@H](C3CCCCC3)C[C@@]1(O)CC[C@@H]2C1=CC(=O)OC1    < 5.00

----------
# target_of_assay: Sodium/potassium-transporting ATPase
# assay_details: 50% displacement of the specific [3H]ouabain binding from the dog kidney Na+/K+ ATPase
# Format: protein-complex assay, Canis lupus familiaris
pIC50: −log10 of the molar value.
reported_metric: pIC50

1. CN(C)CCONC[C@H]1CC[C@]2(O)C[C@@H](c3ccccc3)CC[C@]12C    5.00
2. C[C@]12CC[C@H](c3ccccc3)C[C@@]1(O)CC[C@@H]2CNOCCN    4.70
3. CN(C)CCCCO/N=C/[C@H]1CC[C@]2(O)C[C@@H](C3CCCCC3)CC[C@]12C    5.00
4. CN(C)CCO/N=C/[C@H]1CC[C@]2(O)C[C@@H](c3cccnc3)CC[C@]12C    4.89
5. Cc1cccc([C@H]2CC[C@]3(C)[C@@H](/C=N/OCCN)CC[C@]3(O)C2)c1    5.49
6. CN(C)CCO/N=C\C[C@H]1CC[C@]2(O)C[C@@H](C3CCCCC3)CC[C@]12C    5.80
7. CN(C)CCCO/N=C/[C@H]1CC[C@]2(O)C[C@@H](C3CCCCC3)CC[C@]12C    5.49
8. CN(C)CCO/N=C/C=C/[C@H]1CC[C@]2(O)[C@@H]3CC[C@@H]4C[C@@H](O)CC[C@]4(C)[C@H]3CC[C@]12C    7.60
9. C[C@]12CC[C@H](C3CCCCC3)C[C@@]1(O)CC[C@@H]2C/C=N\OCCN    5.80
10. CN(C)CCO/N=C/[C@H]1CC[C@]2(O)C[C@@H](Cc3ccccc3)CC[C@]12C    5.49
11. C[C@]12CC[C@H](C3CCCCC3)C[C@@]1(O)CC[C@@H]2/C=N/OCCN    6.00
12. CN(C)CCO/N=C/[C@H]1CC[C@]2(O)C[C@@H](c3ccc(O)cc3)CC[C@]12C    5.60
13. CN(C)CCO/N=C/[C@H]1CC[C@]2(O)C[C@@H](c3cccc(CO)c3)CC[C@]12C    5.30
14. C[C@]12CC[C@H](C3CCCCC3)C[C@@]1(O)CC[C@@H]2CC/C=N/OCCN    5.49
15. Cc1cccc([C@H]2CC[C@]3(C)[C@@H](/C=N/OCCN(C)C)CC[C@]3(O)C2)c1    5.30
16. C[C@]12CC[C@H](c3ccccc3)C[C@@]1(O)CC[C@@H]2/C=N/OCCN    5.40
17. CN(C)CCO/N=C/[C@H]1CC[C@]2(O)C[C@@H](C3CCCCC3)CC[C@]12C    5.80
18. CC(/C=N/OCCN(C)C)=C\[C@H]1CC[C@]2(O)C[C@@H](C3CCCCC3)CC[C@]12C    5.70
19. CN(C)CCO/N=C/[C@H]1CC[C@]2(O)CC([C@H]3CC[C@@H](O)CC3)CC[C@]12C (stereo partly specified)    5.80
20. CN(C)CCO/N=C/CC[C@H]1CC[C@]2(O)C[C@@H](C3CCCCC3)CC[C@]12C    5.30
21. CN(C)CCO/N=C/[C@H]1CC[C@]2(O)C[C@@H](CC3CCCCC3)CC[C@]12C    5.40
22. Cc1ccc([C@H]2CC[C@]3(C)[C@@H](/C=N/OCCN(C)C)CC[C@]3(O)C2)cc1    5.00
23. CN(C)CCO/N=C/[C@H]1CC[C@]2(O)C/C(=C\c3ccccc3)CC[C@]12C    5.10
24. CN(C)CCO/N=C/C=C/[C@H]1CC[C@]2(O)C[C@@H](C3CCCCC3)CC[C@]12C    6.00
25. C[C@]12CC[C@H](C3CCCCC3)C[C@@]1(O)CC[C@@H]2/C=C/C=N/N=C(N)N    4.80
26. CN(C)CCO/N=C/[C@H]1CC[C@]2(O)C[C@H](CC3CCCCC3)CC[C@]12C    4.00
27. C[C@]12CC[C@H](C3CCCCC3)C[C@@]1(O)CC[C@@H]2/C=C/C=N/OCCN    6.00
28. CN(C)CCO/N=C/[C@H]1CC[C@]2(O)C[C@@H](c3cccc(O)c3)CC[C@]12C    5.00
29. C[C@]12CC[C@H](c3ccc(CO)cc3)C[C@@]1(O)CC[C@@H]2/C=N/OCCN    5.60
30. Cc1ccc([C@H]2CC[C@]3(C)[C@@H](/C=N/OCCN)CC[C@]3(O)C2)cc1    5.20
31. C[C@]12CC[C@H](C3CCCCC3)C[C@@]1(O)CC[C@@H]2/C=N/OCCCCN    4.89
32. CN(C)CCO/N=C/[C@H]1CC[C@]2(O)CC([C@H]3CC[C@H](O)CC3)CC[C@]12C (stereo partly specified)    6.00
33. CC(/C=N/OCCN)=C\[C@H]1CC[C@]2(O)C[C@@H](C3CCCCC3)CC[C@]12C    5.89
34. C[C@]12CC[C@H](O)C[C@H]1CC[C@@H]1[C@@H]2CC[C@]2(C)[C@@H](/C=C/C=N/OCCN)CC[C@]12O    7.80
35. C[C@]12CC[C@H](C3CCCCC3)C[C@@]1(O)CC[C@@H]2/C=N/OCCCN    6.10
36. CN(C)CCO/N=C/[C@H]1CC[C@]2(O)C[C@@H](c3ccc(CO)cc3)CC[C@]12C    5.10
